Let's look at some sequences and their measured self-splicing fitness (ln).
Assay: self-splicing fitness, log relative to wild type (ln ratio); higher = more splicing; Tetrahymena group I intron in knt gene, E. coli kanamycin selection, DiMSum; sequences stand for … in CUCUCU…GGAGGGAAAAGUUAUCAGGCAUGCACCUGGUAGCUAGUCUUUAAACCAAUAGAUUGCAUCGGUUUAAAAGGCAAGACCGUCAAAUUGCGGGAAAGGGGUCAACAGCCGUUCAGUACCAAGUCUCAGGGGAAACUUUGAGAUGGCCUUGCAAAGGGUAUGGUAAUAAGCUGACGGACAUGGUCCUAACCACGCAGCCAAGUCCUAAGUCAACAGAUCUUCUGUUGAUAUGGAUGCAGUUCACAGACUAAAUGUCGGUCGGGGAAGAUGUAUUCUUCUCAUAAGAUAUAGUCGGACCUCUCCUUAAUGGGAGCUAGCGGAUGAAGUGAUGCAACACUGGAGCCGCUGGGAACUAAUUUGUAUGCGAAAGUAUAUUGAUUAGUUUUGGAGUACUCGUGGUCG;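 note: selection with 25 µg/mL kanamycin versus none on LB agar overnight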
Conditions: 30 °C

>  <seq>
CAGUAGCAAUAUUACGUUAU

>  <self-splicing fitness (ln)>
-2.82

$$$$
>  <seq>
UGCAAGCAAUAUUACGGCGG

>  <self-splicing fitness (ln)>
-0.854

$$$$
>  <seq>
CUAUAGCAAUAUUACGCGCG

>  <self-splicing fitness (ln)>
-0.981

$$$$
>  <seq>
GAUUAGCAAUAUUACGUAGG

>  <self-splicing fitness (ln)>
-3.05

$$$$
>  <seq>
CAUUAGCAAUAUUACGUCUU

>  <self-splicing fitness (ln)>
-3.25

$$$$
>  <seq>
CUCCAGCAAUAUUACGAGAA

>  <self-splicing fitness (ln)>
-2.14

$$$$
>  <seq>
UUUCAGCAAUAUUACGACCA

>  <self-splicing fitness (ln)>
-0.495

$$$$
>  <seq>
AUAUAGCAAUAUUACGGUUG

>  <self-splicing fitness (ln)>
-3.18

$$$$
>  <seq>
ACCAAGCAAUAUUACGACGG

>  <self-splicing fitness (ln)>
-0.86

$$$$
>  <seq>
AUGGAGCAAUAUUACGGUUC

>  <self-splicing fitness (ln)>
-3.93

$$$$
>  <seq>
ACGAAGCAAUAUUACGUUUU

>  <self-splicing fitness (ln)>
-4.13

$$$$
>  <seq>
GCAGAGCAAUAUUACGGCUA

>  <self-splicing fitness (ln)>
-1.53

$$$$
>  <seq>
GGACAGCAAUAUUACGCCCC

>  <self-splicing fitness (ln)>
-0.414

$$$$
>  <seq>
CGCAAGCAAUAUUACGGCUA

>  <self-splicing fitness (ln)>
-1.15

$$$$
>  <seq>
UCGCAGCAAUAUUACGGUUA

>  <self-splicing fitness (ln)>
-0.15

$$$$
>  <seq>
AGGAAGCAAUAUUACGAUCG

>  <self-splicing fitness (ln)>
-1.27

$$$$
>  <seq>
CUAAAGCAAUAUUACGUGUA

>  <self-splicing fitness (ln)>
-3.82

$$$$
>  <seq>
CACAAGCAAUAUUACGCUCU

>  <self-splicing fitness (ln)>
-3.04

$$$$
>  <seq>
CCCCAGCAAUAUUACGAACA

>  <self-splicing fitness (ln)>
-2.51

$$$$
>  <seq>
UAUGAGCAAUAUUACGGUGA

>  <self-splicing fitness (ln)>
-2.21

$$$$
>  <seq>
UUUGAGCAAUAUUACGCUAU

>  <self-splicing fitness (ln)>
-3.79

$$$$
>  <seq>
UUGCAGCAAUAUUACGGACU

>  <self-splicing fitness (ln)>
-1.3

$$$$
>  <seq>
CUGAAGCAAUAUUACGCGGU

>  <self-splicing fitness (ln)>
-1.86

$$$$
>  <seq>
GCACAGCAAUAUUACGGGUG

>  <self-splicing fitness (ln)>
-4.37

$$$$
>  <seq>
GUAUAGCAAUAUUACGACGA

>  <self-splicing fitness (ln)>
-1.78

$$$$
>  <seq>
GCGAAGCAAUAUUACGGCUA

>  <self-splicing fitness (ln)>
0.15

$$$$
>  <seq>
GAGUAGCAAUAUUACGCCCU

>  <self-splicing fitness (ln)>
-0.812

$$$$
>  <seq>
CUGCAGCAAUAUUACGGCCG

>  <self-splicing fitness (ln)>
-0.291

$$$$
>  <seq>
UCUUAGCAAUAUUACGUACC

>  <self-splicing fitness (ln)>
-1.26

$$$$
>  <seq>
CAAUAGCAAUAUUACGGAGU

>  <self-splicing fitness (ln)>
-4.14

$$$$
>  <seq>
CUCGAGCAAUAUUACGCUGG

>  <self-splicing fitness (ln)>
-4.31

$$$$
>  <seq>
GACGAGCAAUAUUACGUUUU

>  <self-splicing fitness (ln)>
-4.36

$$$$
>  <seq>
CUAAAGCAAUAUUACGUGCC

>  <self-splicing fitness (ln)>
-4.57

$$$$
>  <seq>
CGUCAGCAAUAUUACGCAAA

>  <self-splicing fitness (ln)>
-2.96

$$$$
